- Test system: DU-145 prostate
- EXPERIMENT NOTES: NCI-60 one-dose screen, 48 h (100 = growth as untreated, 0 = no growth, -100 = all killed)
- CONDITION: 10 µM unless noted
- Description: Cells are grown in 96 well plates and exposed to the test compound for 48 hours. Compounds are tested at a single concentration, which is 10^-5 M for most compounds. The reported endpoint is percent growth (GI% or GIPRCNT), where numbers from 0 - 100% represent growth inhibition, and numbers from -100% - 0 represent cell death. For example, a value of 40 represents 60% growth inhibition. A value of 0 means no net growth occurred over the course of the experiment. […]
About 83,000 compounds went through this panel and 20% of them were active in at least one assay; those are over-represented in the sample as a whole. Active and inactive are the calls of the source. The calls were made as follows: active = growth percent below 10; inactive = the rest.
This listing pairs compounds with measured growth.

Worked examples follow.
{"columns": ["COMPOUND", "STUDY TARGET", "growth"],
 "data": [
  ["N#Cc1ccccc1C#Cc1ccccc1C#Cc1ccc(OCCCCCCOc2ccc(C#Cc3ccccc3C#Cc3ccccc3C#N)cc2)cc1", "DU-145 prostate", "111% (inactive)"],
  ["CCN(CC)CCNCC(=O)Oc1ccc(/C=C/C(=O)CC(=O)/C=C/c2ccc(OC(=O)CNCCN(CC)CC)c(OC)c2)cc1OC", "DU-145 prostate", "-56.6% (active)"],
  ["O=C1CSC(c2ccccc2Cl)N1c1nnc(Cn2nnc3ccccc32)o1 (centres undefined)", "DU-145 prostate", "91.8% (inactive)"]
]}

Query: Using the record for CC(=O)OC1Oc2cc(C)c(C)cc2-c2oc(=O)c(-c3ccccc3)cc21 (centres undefined) , report its growth.
Response: 15% (inactive)

Query: Using the record for COc1ccc(-c2cc(-c3cccnc3)nc3sc(C(=O)Nc4ccccc4)c(N)c23)cc1OC , report its growth.
Response: 54.6% (inactive)

Query: Using the record for c1ccc(CN=C(NCc2ccccc2)NCc2ccccc2)cc1 , report its growth.
Response: 66.4% (inactive)

Query: Using the record for COc1cnc2c(c1)C(=O)c1c-2n(CCCN2CCNCC2)c(=O)c2cc(F)ccc12 , report its growth.
Response: -0.602% (active)

Query: Using the record for CCCCc1n(Cc2ccc3ccccc3c2)cc[n+]1Cc1ccc2ccccc2c1 , report its growth.
Response: 13.6% (inactive)

Query: Using the record for CSc1nc2nc3c(c(-c4ccc(C)cc4)c2c(=O)[nH]1)CN(C)C/C3=C\c1ccc(C)cc1 , report its growth.
Response: 99.4% (inactive)
